Source: patent USRE39591E1

- System: up to 32 different microorganisms
- protocol: in vitro antibacterial activity (MIC), agar dilution on Brain Heart Infusion (BHI) agar with Steers replicator
- Type: cell-based
- run parameters: organism code VV; unit assumed
assay metric: MIC (µg/mL)

# compound, numeric result
records = [
    ("CCC1OC(=O)C(C)C(=O)C(C)C(OC2OC(C)CC(N(C)C)C2O)C(C)(OCC=Cc2cnc3ccc(OC)cc3c2)CC(C)C(=O)C(C)C2NC(=O)OC12C (stereo not shown)", 0.02),
    ("CC[C@H]1OC(=O)[C@H](C)C(=O)[C@H](C)[C@@H](O[C@@H]2O[C@H](C)C[C@H](N(C)C)[C@H]2O)[C@@](C)(OCCNCCCc2ccccc2)C[C@@H](C)C(=O)[C@H](C)[C@H]2NC(=O)O[C@@]21C", 0.2),
    ("CCC1OC(=O)C(C)C(=O)C(C)C(OC2OC(C)CC(N(C)C)C2O)C(C)(OCC=Cc2cnc3c([N+](=O)[O-])cccc3c2)CC(C)C(=O)C(C)C2NC(=O)OC12C (stereo not shown)", 0.05),
    ("CC[C@H]1OC(=O)[C@H](C)C(=O)[C@H](C)[C@@H](O[C@@H]2O[C@H](C)C[C@H](N(C)C)[C@H]2O)[C@@](C)(OCC#CBr)C[C@@H](C)C(=O)[C@H](C)[C@H]2NC(=O)O[C@@]21C", 0.39),
]
